# System under test: Rho-associated protein kinase 2 (Homo sapiens)
# Sequence (O75116 whole entry): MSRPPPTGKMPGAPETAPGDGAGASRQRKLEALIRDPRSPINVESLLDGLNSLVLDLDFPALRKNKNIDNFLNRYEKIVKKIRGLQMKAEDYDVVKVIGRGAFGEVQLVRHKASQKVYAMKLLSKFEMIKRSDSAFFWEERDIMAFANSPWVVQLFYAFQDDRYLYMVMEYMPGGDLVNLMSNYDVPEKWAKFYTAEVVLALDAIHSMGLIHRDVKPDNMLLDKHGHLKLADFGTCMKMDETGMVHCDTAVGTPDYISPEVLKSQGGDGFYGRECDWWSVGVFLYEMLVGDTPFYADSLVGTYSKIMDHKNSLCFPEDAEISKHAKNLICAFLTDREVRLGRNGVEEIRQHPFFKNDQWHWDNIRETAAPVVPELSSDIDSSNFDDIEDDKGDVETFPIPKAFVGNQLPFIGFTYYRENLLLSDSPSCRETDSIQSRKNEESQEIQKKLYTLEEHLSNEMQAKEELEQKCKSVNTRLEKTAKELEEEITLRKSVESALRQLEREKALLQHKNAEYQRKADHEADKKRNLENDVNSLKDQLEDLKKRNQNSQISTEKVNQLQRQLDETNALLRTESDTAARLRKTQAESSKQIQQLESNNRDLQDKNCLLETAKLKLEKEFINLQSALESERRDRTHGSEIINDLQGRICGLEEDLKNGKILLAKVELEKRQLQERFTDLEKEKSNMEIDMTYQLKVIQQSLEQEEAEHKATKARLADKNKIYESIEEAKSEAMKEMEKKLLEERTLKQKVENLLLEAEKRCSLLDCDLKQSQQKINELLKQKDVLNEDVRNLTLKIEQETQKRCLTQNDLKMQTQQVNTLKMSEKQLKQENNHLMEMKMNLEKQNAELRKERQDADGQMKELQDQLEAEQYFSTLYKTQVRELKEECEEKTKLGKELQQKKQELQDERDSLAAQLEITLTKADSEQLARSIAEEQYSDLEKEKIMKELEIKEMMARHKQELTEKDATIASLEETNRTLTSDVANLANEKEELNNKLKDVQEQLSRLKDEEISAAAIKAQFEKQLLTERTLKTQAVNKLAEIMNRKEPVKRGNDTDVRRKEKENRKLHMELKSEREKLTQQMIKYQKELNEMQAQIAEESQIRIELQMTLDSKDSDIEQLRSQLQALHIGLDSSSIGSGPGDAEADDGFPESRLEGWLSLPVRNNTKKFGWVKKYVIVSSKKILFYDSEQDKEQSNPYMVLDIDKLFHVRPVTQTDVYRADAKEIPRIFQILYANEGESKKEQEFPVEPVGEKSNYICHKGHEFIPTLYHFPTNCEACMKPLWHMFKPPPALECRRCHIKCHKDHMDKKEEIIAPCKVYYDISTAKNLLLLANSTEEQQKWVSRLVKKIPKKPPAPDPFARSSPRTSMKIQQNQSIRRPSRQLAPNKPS
Assay endpoint: IC50 (nM)
Use nM as the unit, but write only the number.

Worked set:
molecule=O=C(c1cc2ccc(-c3nccc(Nc4ccc(-c5cn[nH]c5)cc4)n3)cc2[nH]1)N1CCCC1 measured_result=240
molecule=Cn1c(C(=O)N2CC(F)(F)C2)cc2ccc(-c3nccc(Nc4ccc(-c5cn[nH]c5)cn4)n3)cc21 measured_result=39
molecule=CC1(C(=O)N2CCc3ccc(-c4ncc(F)c(Nc5ccc(-c6cn[nH]c6)cc5)n4)cc3C2)CC(F)(F)C1 measured_result=331
molecule=O=C(c1ccncc1)N1Cc2ccc(-c3nccc(Nc4ccc(-c5cn[nH]c5)cc4)n3)cc2C1 measured_result=313

Noted IC50 for `O=C(C1CC(F)(F)C1)N1Cc2ccc(-c3cncc(Nc4ccc(-c5cn[nH]c5)cc4)n3)cc2C1` , tested on Rho-associated protein kinase 2 (Homo sapiens): 39

Noted IC50 for `COc1cc(-c2cn[nH]c2)ccc1Nc1ccnc(-c2ccc3c(c2)CN(C(=O)C2CC(F)(F)C2)C3)n1` , tested on Rho-associated protein kinase 2 (Homo sapiens): 21

Noted IC50 for `O=C(C1CC(F)(F)C1)N1Cc2ccc(-c3nc(Nc4ccc(-c5cn[nH]c5)cc4)c4occc4n3)cc2C1` , tested on Rho-associated protein kinase 2 (Homo sapiens): 18
